- target_entity: 14-3-3γ (Homo sapiens, UniProt P61981)
- Construct: made in house; host or cells: E. coli NiCo21 (DE3)
- Sequence (P61981 whole entry): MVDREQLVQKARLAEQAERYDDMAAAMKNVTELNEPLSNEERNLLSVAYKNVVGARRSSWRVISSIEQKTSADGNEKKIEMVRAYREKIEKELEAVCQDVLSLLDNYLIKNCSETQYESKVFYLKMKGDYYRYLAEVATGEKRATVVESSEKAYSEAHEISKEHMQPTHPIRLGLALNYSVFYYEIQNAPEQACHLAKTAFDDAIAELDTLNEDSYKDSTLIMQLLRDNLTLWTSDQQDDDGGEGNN
- test: Fluorescence anisotropy (FA) binary binding study: 14-3-3 titrated to fluorescein-labelled peptide
- study_conditions: Table S4; FA Kd / Kd of 1; replicate 1
Where a SMILES comes first, the peptide text is derived from it. [ ]: non-standard residue; d: D form. ξ: configuration not given here. Phe(4-NO2) = N[C@@H](Cc1ccc([N+](=O)[O-])cc1)C(=O)O; ξAla(4-thiazolyl) = NC(Cc1cscn1)C(=O)O; pS = N[C@@H](COP(=O)(O)O)C(=O)O; β3hS = N[C@@H](CO)CC(=O)O; Nva = CCC[C@H](N)C(=O)O; βAla = NCCC(=O)O
measured_property: Fold change to 1
Answer field: number only, no words.

Query: Fold change to 1; subject: CCC[C@H](NC(=O)[C@H](N)CCCCN)C(=O)N[C@@H](Cc1ccc([N+](=O)[O-])cc1)C(=O)NC(Cc1cscn1)C(=O)N[C@@H](COP(=O)(O)O)C(=O)N[C@@H](Cc1ccccc1)C(=O)N[C@@H](CO)CC(=O)NCCC(=O)N[C@@H](Cc1ccc([N+](=O)[O-])cc1)C(=O)N[C@@H](CCCCN)C(N)=O (stereo partly drawn) [4b] (H-[dK][Nva][Phe(4-NO2)][ξAla(4-thiazolyl)][pS]F[β3hS][βAla][Phe(4-NO2)]K-NH2; N-terminus and C-terminus assumed)
0.9

Query: Fold change to 1; subject: CCC[C@H](NC(=O)[C@H](N)CCCCN)C(=O)N[C@@H](Cc1ccc([N+](=O)[O-])cc1)C(=O)NC(Cc1cscn1)C(=O)N[C@@H](COP(=O)(O)O)C(=O)N[C@@H](Cc1ccc([N+](=O)[O-])cc1)C(=O)N[C@@H](CO)CC(=O)NCCC(=O)N[C@@H](Cc1ccccc1)C(=O)N[C@@H](CCCCN)C(N)=O (stereo partly drawn) [5b] (H-[dK][Nva][Phe(4-NO2)][ξAla(4-thiazolyl)][pS][Phe(4-NO2)][β3hS][βAla]FK-NH2; N-terminus and C-terminus assumed)
24.3
